// provenance: patent US20140017242A1

Below, each entry is listed alongside its reported kon.
- target: T1, human BKB2R-derived epitope peptide (SEQ ID NO:73), PEG-biotin (human, also: PEG-biotin, site not given here)
- T1 construct: also called immunogenic human BKB2R peptide fragment
- T1 peptide: KEYSDEGHNVTAC
- experiment: BLI (Octet), peptide-PEG-biotin on streptavidin sensor, antibody 250 nM
Where no end group is shown, it is not given here.
Give the value in M⁻¹ s⁻¹ but do not write M⁻¹ s⁻¹ after it.

binder="humanized anti-BKB2R antibody L2/H1 (antibody, human IgG2, kappa, V domains shown) VH: EVQLVESGGGLVQPGGSLRLSCAASGFTFSDYWMSWVRQAPGKGLEWVAEIRLKSDNYATHYAESVKGRFTISRDNAKNSLYLQMNSLRAEDTAVYYCTRDYYAMEYWGQGTLVTVSS VL: DIVMTQSPLSLPVTPGEPASISCRSSQTIVHSNGKTYLEWYLQKPGQSPQLLIYKVSNRFSGVPDRFSGSGSGTEFTLKISRVEAEDVGVYYCFQASHVPYTFGQGTKLEIKR" result_number=216000
binder="humanized anti-BKB2R antibody L1/H1 (antibody, human IgG2, kappa, V domains shown, also called H1/L1) VH: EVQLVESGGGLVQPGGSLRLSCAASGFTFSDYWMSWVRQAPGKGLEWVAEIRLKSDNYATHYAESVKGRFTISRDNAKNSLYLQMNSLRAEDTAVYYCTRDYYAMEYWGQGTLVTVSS VL: DIVMTQSPLSLPVTPGEPASISCRSSQTIVHSNGKTYLEWYLQKPGQSPQLLIYKVSNRFSGVPDRFSGSGSGTDFTLKISRVEAEDVGVYYCFQASHVPYTFGQGTKLEIKR" result_number=1.59e+06

Return reported kon; argument: chimeric/humanized anti-BKB2R antibody L2/HC (antibody, human IgG2, V domains shown, not shown: human IgG2 constant region) VH: EVKLEESGGGLVQPGGSMKLSCVVSGFTFSDYWMSWVRHSPEMGLEWVAEIRLKSDNYATHYAESVKGRFTISRDDSKSRLYLQINSLRGEDTGIYYCTRDYYAMEYWGQGTSVTVSS VL: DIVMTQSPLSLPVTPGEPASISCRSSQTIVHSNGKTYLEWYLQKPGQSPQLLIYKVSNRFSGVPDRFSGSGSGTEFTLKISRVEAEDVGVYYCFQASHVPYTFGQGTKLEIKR
2.17e+06
